Target: Ubiquitin carboxyl-terminal hydrolase 30 (Homo sapiens) (UniProt Q70CQ3)
Sequence (Q70CQ3 whole entry, looked up): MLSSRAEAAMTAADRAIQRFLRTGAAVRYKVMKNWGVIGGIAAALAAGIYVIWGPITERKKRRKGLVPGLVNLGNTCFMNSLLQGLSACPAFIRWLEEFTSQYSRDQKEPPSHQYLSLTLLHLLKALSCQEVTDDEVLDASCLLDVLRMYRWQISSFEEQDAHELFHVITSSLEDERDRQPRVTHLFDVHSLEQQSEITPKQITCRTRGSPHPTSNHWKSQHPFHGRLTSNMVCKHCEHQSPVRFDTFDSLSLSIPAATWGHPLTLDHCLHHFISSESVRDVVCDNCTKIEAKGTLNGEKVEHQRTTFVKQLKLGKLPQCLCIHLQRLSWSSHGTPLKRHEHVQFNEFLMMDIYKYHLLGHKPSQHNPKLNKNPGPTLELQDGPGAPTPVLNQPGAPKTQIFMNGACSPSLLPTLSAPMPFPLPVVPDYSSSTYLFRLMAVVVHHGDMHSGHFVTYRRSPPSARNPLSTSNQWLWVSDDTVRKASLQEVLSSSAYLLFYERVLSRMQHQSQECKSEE
Assay: inhibitors of ubiquitin-specific protease 30 deubiquitylating enzyme, concentration dependence, in vitro biochemical, validation of primary hits (AID 1645865)
Conditions: purified USP30, Ub-rhodamine cleavage, fluorescence, 2 h
Active and inactive are the calls of the source.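 How the source made its calls: active means maximal inhibition of the USP30 enzyme reaching 30% or more across the dose series; inactive means the rest.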
Entry note: the call must match one of 1 (yes) = active, 0 (no) = inactive

Field: example entries. Status: answers known.
Input: Could you please tell me the result logged for "O=C(Cc1cccc2ccccc12)Nc1nc2ccc(F)cc2s1" in this assay?
Output: 1 (yes)

Input: State the result this test recorded for "O=C(NC1CC1)c1ccnn1-c1ccc2ccc(-c3ccncc3)cn12" .
Output: 0 (no)

Input: Hi, sorry to bother you, what did the test record for "O=C(COC(=O)c1cc(Cl)ccc1O)Nc1ccc2c(c1)OCCO2" ?
Output: 1 (yes)

Next compound, please.
Input: I would be grateful if you could indicate the recorded call for CN1c2ccccc2CN(CC(N)=O)CC1Cc1ccccc1 (centres undefined) .
Output: 0 (no)
